For each record, write down the corresponding IC50.
TARGET OF ASSAY: SARS-CoV-2 M^pro (Severe acute respiratory syndrome coronavirus 2, UniProt P0DTD1)
ASSAY COMMENT: SPE-MS M^pro inhibition assay
Assay type: biochemical
MEASUREMENT CONTEXT: SPE-MS; M^pro 0.05 μM, substrate 2.0 μM; n = 3, mean ± SD; freshly prepared DMSO stocks for 8; read-out: IC50
Please reply with the bare figure in µM and do not write the unit itself.

Request: Recall and state the measured IC50 for CC(C)(C)O[C@H]1C(=O)N2[C@@H]1SC(C)(C)[C@@H]2C(=O)OCc1ccccc1 [26d] .
Response: 39

Request: Provide measured IC50 value, entry: CO[C@@]1(NC(=O)Cc2ccccc2)C(=O)N2[C@@H](C(=O)OCc3ccccc3)C(C)(C)S(=O)(=O)[C@@H]21
Response: 11

Request: Recall and state the measured IC50 for CC(C)O[C@H]1C(=O)N2[C@@H]1SC(C)(C)[C@@H]2C(=O)OCc1ccccc1 [26c] .
Response: 47

Just for reference, paper PMC12588090 is where these values come from.
